For each of the molecules below, state its Population Apoptotic (%).
- System: U2OS
- TEST SUMMARY: Multiplex assay against U2OS
- Assay type: toxicity, cell-based
- PARTICULARS: human, 48 h, 10 µM, compound concentration 10 uM, replicate 2
Give the quantity in %, number only.

Measured Population Apoptotic (%), COc1cc(C(=O)N2CC[C@@H](O)[C@@H](N)C2)cc2nc(-c3cc4ccccc4n3CC3CC3)n(C)c12.Cl : 92

Measured Population Apoptotic (%) of CCC(=O)OCC(=O)[C@@]1(OC(=O)CC)[C@@H](C)C[C@H]2[C@@H]3CCC4=CC(=O)C=C[C@]4(C)[C@@]3(Cl)[C@@H](O)C[C@@]21C [BECLOMETHASONE DIPROPIONATE] : 70

Lab note: CN(C)C(=O)Cn1cc(-c2ccc(-c3nnc4ccccn34)cc2)cn1 gave Population Apoptotic (%) of 85

Note to self: Population Apoptotic (%) recorded for C[C@H](NC(=O)CNC(=O)c1cccc(Cl)c1)c1ccccc1 was 100

Form: molecule = O=C(NCCNCC(O)COc1ccc(O)cc1)N1CCOCC1.O=C(NCCNCC(O)COc1ccc(O)cc1)N1CCOCC1.O=C(O)/C=C/C(=O)O (stereo not drawn) [XAMOTEROL FUMARATE] ; Population Apoptotic (%) = 94

Measured Population Apoptotic (%), O=c1ccc2ccc(OCCCCN3CCN(c4cccc5sccc45)CC3)cc2[nH]1 : 100

What the record says about COC(c1ccccc1)(c1ccccc1)[C@H](Oc1nc(C)cc(C)n1)C(=O)O : Population Apoptotic (%) is 81

Lab note: measured Population Apoptotic (%) of COCCn1c(C)c(C)s/c1=N\C(=O)C1C(C)(C)C1(C)C was 96
